- TARGET_SYSTEM: Neuropeptide Y receptor type 2 (Homo sapiens)
- TEST_NAME: human Y2 receptor positive modulation or activation – cell-based, primary screen (AID 1359);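 note: cells stimulated with NPY near EC25 plus isoproterenol at EC100; 0% = vehicle plus submaximal agonist and 100% = vehicle plus saturating agonist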
- SETUP_CONDITIONS: cells expressing NPY-Y2, potentiator/agonist read-out; at 3.6 µM
The campaign covered roughly 220,000 compounds. About 970 (0.44%) were called active. Cut-off read from the data, not from the text of the source: active = activation above about 27%; inactive = the rest. Shown is part of a subset that was picked to be rich in actives.
Possible outcomes: yes (1) (active), no (0) (inactive)

- COMPOUND: "CC(C)NC(=O)NNc1c(Cl)cncc1Cl"
  CLASS_NAME: "no (0)"
- COMPOUND: "OCCNCc1cccc(OCc2ccccc2Cl)c1"
  CLASS_NAME: "no (0)"
- COMPOUND: "Nc1c(-c2cccc(Cl)c2)cnn1-c1cccc([N+](=O)[O-])c1"
  CLASS_NAME: "yes (1)"
- COMPOUND: "CCOC(=O)c1[nH]ncc1CN1CCCC(C(=O)c2ccc(OC)cc2C)C1 (stereo unspecified)"
  CLASS_NAME: "no (0)"
- COMPOUND: "COC(=O)c1cc(N2CCNCC2)nc2ccccc12"
  CLASS_NAME: "no (0)"
- COMPOUND: "COc1ccc(C(=O)C2CCCN(Cc3cccn3-c3ccccn3)C2)c(C)c1 (stereo unspecified)"
  CLASS_NAME: "yes (1)"

---

- TARGET_SYSTEM: Neuropeptide Y receptor type 2 (Homo sapiens) (UniProt P49146)
- Sequence (P49146 whole entry, looked up): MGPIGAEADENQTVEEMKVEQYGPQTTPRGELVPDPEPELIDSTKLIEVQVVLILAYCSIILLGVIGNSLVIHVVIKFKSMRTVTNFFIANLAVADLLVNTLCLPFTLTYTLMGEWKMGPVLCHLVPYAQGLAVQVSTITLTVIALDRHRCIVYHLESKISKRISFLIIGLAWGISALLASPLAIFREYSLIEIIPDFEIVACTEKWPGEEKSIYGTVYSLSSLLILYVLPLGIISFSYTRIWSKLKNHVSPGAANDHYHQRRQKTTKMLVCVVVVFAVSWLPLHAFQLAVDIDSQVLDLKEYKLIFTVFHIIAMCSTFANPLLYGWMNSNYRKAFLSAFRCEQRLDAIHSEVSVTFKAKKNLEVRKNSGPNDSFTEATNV
- TEST_NAME: human Y2 receptor positive modulation or activation – cell-based, primary screen (AID 1359);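 note: cells stimulated with NPY near EC25 plus isoproterenol at EC100; 0% = vehicle plus submaximal agonist and 100% = vehicle plus saturating agonist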
- SETUP_CONDITIONS: cells expressing NPY-Y2, potentiator/agonist read-out; at 3.6 µM; hits give high values
Hit rate of the full screen: of about 220,000 compounds, about 970 (0.44%) were called active. What follows is part of a selection rich in actives, with near analogues and random picks from the rest.
MEASURED_METRIC: activation (%)

- COMPOUND: "O=C1CCCC(O)=C1N=Nc1ccc(S(=O)(=O)N2CCOCC2)cc1"
  MEASUREMENT_UNITS: "%"
  VALUE_OBSERVED: 4.38
- COMPOUND: "C#CCOCCOCCOCCNc1nc(N2CCN(C(=O)[C@H](CCCCN)n3cc([C@@H](N)C(C)CC)nn3)CC2)nc(N2CCN(C(=O)[C@H](Cc3ccc(O)cc3)n3cc([C@@H](N)C(C)CC)nn3)CC2)n1 (some centres not stated)"
  MEASUREMENT_UNITS: "%"
  VALUE_OBSERVED: 104
- COMPOUND: "COCCCNC(NC(=O)c1ccc(C)cc1)C(Cl)(Cl)Cl (configuration not stated)"
  MEASUREMENT_UNITS: "%"
  VALUE_OBSERVED: 15.8
- COMPOUND: "COC(=O)c1ccc(NC(=O)c2ccccc2NS(=O)(=O)c2ccccc2)cc1"
  MEASUREMENT_UNITS: "%"
  VALUE_OBSERVED: 34.4
- COMPOUND: "O=c1cc(N2CCN(Cc3ccccc3)CC2)c(-c2ccccc2)n[nH]1"
  MEASUREMENT_UNITS: "%"
  VALUE_OBSERVED: 12.9
- COMPOUND: "Cc1coc2c(O)cc3c(c12)OC1(N2CCCCC2)C(=O)NCCCC31 (configuration not stated)"
  MEASUREMENT_UNITS: "%"
  VALUE_OBSERVED: 93
- COMPOUND: "O=C(Nc1nncs1)c1ccccc1NS(=O)(=O)c1cccs1"
  MEASUREMENT_UNITS: "%"
  VALUE_OBSERVED: -3.36

---

- TARGET_SYSTEM: Neuropeptide Y receptor type 2 (Homo sapiens) (UniProt P49146)
- TEST_NAME: human Y2 receptor positive modulation or activation – cell-based, primary screen (AID 1359);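 note: cells stimulated with NPY near EC25 plus isoproterenol at EC100; 0% = vehicle plus submaximal agonist and 100% = vehicle plus saturating agonist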
- SETUP_CONDITIONS: cells expressing NPY-Y2, potentiator/agonist read-out; at 3.6 µM; hits give high values
Screen size: about 220,000 compounds; about 970 (0.44%) were called active. Only a selection was taken, and actives are over-represented in it overall.

- COMPOUND: "O=C(Nc1cccc(S(=O)(=O)N2CCCCC2)c1)c1ccc2c(c1)OCO2"
  MEASUREMENT_UNITS: "%"
  activation: 1.87
- COMPOUND: "CCC(=O)N1CCC(C(N)=O)(N2CCCCC2)CC1"
  MEASUREMENT_UNITS: "%"
  activation: -10.4
- COMPOUND: "Cc1ccc(CCNC(=O)C2CCN(S(=O)(=O)N3CCCC3)CC2)cc1"
  MEASUREMENT_UNITS: "%"
  activation: 104
- COMPOUND: "COc1ccc(/C(C)=N/Nc2cc(C(F)(F)F)ccc2Cl)c(OC)c1"
  MEASUREMENT_UNITS: "%"
  activation: -10.5
- COMPOUND: "CCCCc1cc2c(s1)CCCC/C2=N/O"
  MEASUREMENT_UNITS: "%"
  activation: 5.62
- COMPOUND: "COc1ccccc1NC(=S)N1CCC(NC(=O)C23CC4CC(CC(C4)C2)C3)CC1"
  MEASUREMENT_UNITS: "%"
  activation: 1.71
- COMPOUND: "Cc1ccccc1/[N+]([O-])=C/c1ccncc1"
  MEASUREMENT_UNITS: "%"
  activation: -7.27
- COMPOUND: "COc1ccc(N2C(=O)C(CC(=O)Nc3ccc(F)cc3)N(CCc3cccs3)C2=O)cc1 (configuration not stated)"
  MEASUREMENT_UNITS: "%"
  activation: 4.57
- COMPOUND: "Cc1ccc(C)c2c1cc(C)c1nnc(SCC(=O)Nc3cccc(C(=O)O)c3)n12"
  MEASUREMENT_UNITS: "%"
  activation: -10
- COMPOUND: "CCC(=O)c1ccc(N2CCN(C(=O)c3cc([N+](=O)[O-])ccc3F)CC2)c(F)c1"
  MEASUREMENT_UNITS: "%"
  activation: -2.53
- COMPOUND: "Cc1cccc(C)c1NC(=O)C(c1ccccc1)N1CC(=O)Nc2ccccc21 (configuration not stated)"
  MEASUREMENT_UNITS: "%"
  activation: -1.44
- COMPOUND: "O=C(Nc1sc2c(c1-c1nc3ccccc3[nH]1)CCCC2)C1CC1"
  MEASUREMENT_UNITS: "%"
  activation: 30.3
- COMPOUND: "O=C(Nc1cccc(-c2nc3ccccc3[nH]2)c1)c1ccc(C(=O)Nc2cccc(-c3nc4ccccc4[nH]3)c2)cc1"
  MEASUREMENT_UNITS: "%"
  activation: 0.29
- COMPOUND: "O=C(NCCCN1CCN(Cc2ccccc2)CC1)C1CCN(S(=O)(=O)N2CCCC2)CC1"
  MEASUREMENT_UNITS: "%"
  activation: 17.2
- COMPOUND: "O=C(Nc1cccc(S(=O)(=O)Nc2ccc(Cl)cc2)c1)c1ccc2c(c1)OCCO2"
  MEASUREMENT_UNITS: "%"
  activation: 35
- COMPOUND: "Cc1ccccc1C(CC(=O)c1cccs1)C(C#N)C#N (configuration not stated)"
  MEASUREMENT_UNITS: "%"
  activation: 4.09
- COMPOUND: "O=c1c2c3c(sc2n(CCN2CCCC2)c(=O)n1Cc1ccccc1)CCCCC3"
  MEASUREMENT_UNITS: "%"
  activation: -17.9
- COMPOUND: "COc1ccc(NC(=O)c2cn(-c3ccccc3)nc2SC)cc1"
  MEASUREMENT_UNITS: "%"
  activation: -16
- COMPOUND: "O=C(CN1CCN(Cc2ccccc2)CC1)NC(c1ccccc1)c1ccccc1"
  MEASUREMENT_UNITS: "%"
  activation: -14
- COMPOUND: "O=C(Nc1ccc(Cl)cn1)c1ccc2c(c1)OCCO2"
  MEASUREMENT_UNITS: "%"
  activation: -8.32
- COMPOUND: "C1CC1Cc1noc(CN2CCN(CC3CC3)CC2)n1"
  MEASUREMENT_UNITS: "%"
  activation: -4.58
- COMPOUND: "CCS(=O)(=O)N1CCCC(C(=O)NCc2ccc(C)cc2)C1 (configuration not stated)"
  MEASUREMENT_UNITS: "%"
  activation: 13

---

- TARGET_SYSTEM: Neuropeptide Y receptor type 2 (Homo sapiens) (UniProt P49146)
- TEST_NAME: human Y2 receptor positive modulation or activation – cell-based, primary screen (AID 1359);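 note: cells stimulated with NPY near EC25 plus isoproterenol at EC100; 0% = vehicle plus submaximal agonist and 100% = vehicle plus saturating agonist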
- SETUP_CONDITIONS: cells expressing NPY-Y2, potentiator/agonist read-out; at 3.6 µM
About 970 (0.44%) of roughly 220,000 compounds were called active. Rule as the data show it: active = activation above about 27%; inactive = the rest. For the sample, actives were picked, then their nearest neighbours and some compounds at random.
Possible outcomes: true (1) (active), false (0) (inactive)

- COMPOUND: "CN(C)S(=O)(=O)c1ccc(NC(=O)COC(=O)c2n[nH]c3ccccc23)cc1"
  TARGET_SYSTEM: "Neuropeptide Y receptor type 2 (Homo sapiens) (UniProt P49146)"
  CLASS_NAME: "true (1)"
- COMPOUND: "CN(C)S(=O)(=O)c1ccc(NC(=O)COC(=O)Cn2[nH]c(=O)c3ccccc3c2=O)cc1"
  TARGET_SYSTEM: "Neuropeptide Y receptor type 2 (Homo sapiens) (UniProt P49146)"
  CLASS_NAME: "false (0)"
- COMPOUND: "O=C(COC(=O)c1n[nH]c2ccccc12)NCc1ccccc1"
  TARGET_SYSTEM: "Neuropeptide Y receptor type 2 (Homo sapiens) (UniProt P49146)"
  CLASS_NAME: "false (0)"
- COMPOUND: "COC(=O)CSc1nc2c(c(C3CC=CCC3)c1C#N)CCC2 (stereo not given)"
  TARGET_SYSTEM: "Neuropeptide Y receptor type 2 (Homo sapiens) (UniProt P49146)"
  CLASS_NAME: "false (0)"
- COMPOUND: "O=C(NCCc1ccccn1)c1cc(-c2ccc(Cl)cc2)nc2ccccc12"
  TARGET_SYSTEM: "Neuropeptide Y receptor type 2 (Homo sapiens) (UniProt P49146)"
  CLASS_NAME: "false (0)"
